Protocol details: Pharmacokinetics after intraperitoneal injection in mice
Format: in vivo
Condition summary: mouse, ip; plasma; intraperitoneal injection in mice
Recorded metric: Cmax (ng/mL)
Field format: number, assumed ng/mL, no unit text.

Query: What value of measured Cmax is listed for CC[C@@]1(O)C(=O)OCc2c1cc1n(c2=O)Cc2cc3c(CN(C)C)c(O)ccc3nc2-1 ?
Reply: 3250

* * *

Tested target: RORγt-LBD (Homo sapiens, UniProt P51449)
Sequence (P51449 269-508 limits assumed): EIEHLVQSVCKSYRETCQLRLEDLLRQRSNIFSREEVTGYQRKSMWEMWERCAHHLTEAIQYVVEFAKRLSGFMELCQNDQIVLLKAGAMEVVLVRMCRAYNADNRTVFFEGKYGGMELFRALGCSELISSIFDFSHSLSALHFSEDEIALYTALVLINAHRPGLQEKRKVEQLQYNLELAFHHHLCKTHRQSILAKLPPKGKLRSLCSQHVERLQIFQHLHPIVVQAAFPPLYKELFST
Protocol details: HTRF coactivator (SRC-1 peptide) recruitment assay
Condition summary: read-out: IC50 (disruption of RORγt-LBD interaction with SRC-1 cofactor peptide)
Recorded metric: pIC50
Note on pIC50: it is the negative log10 of concentration, concentration in mol/L.

Query: What measured pIC50 goes with CC[C@@]1(O)C(=O)OCc2c1cc1n(c2=O)Cc2cc3c(CN(C)C)c(O)ccc3nc2-1 ?
Reply: 5.18
